- assayed_system: cloned human dopamine D3 receptors (Homo sapiens, UniProt P35462)
- Construct: expressed in transfected cells; membrane homogenate
- Sequence (P35462 whole entry): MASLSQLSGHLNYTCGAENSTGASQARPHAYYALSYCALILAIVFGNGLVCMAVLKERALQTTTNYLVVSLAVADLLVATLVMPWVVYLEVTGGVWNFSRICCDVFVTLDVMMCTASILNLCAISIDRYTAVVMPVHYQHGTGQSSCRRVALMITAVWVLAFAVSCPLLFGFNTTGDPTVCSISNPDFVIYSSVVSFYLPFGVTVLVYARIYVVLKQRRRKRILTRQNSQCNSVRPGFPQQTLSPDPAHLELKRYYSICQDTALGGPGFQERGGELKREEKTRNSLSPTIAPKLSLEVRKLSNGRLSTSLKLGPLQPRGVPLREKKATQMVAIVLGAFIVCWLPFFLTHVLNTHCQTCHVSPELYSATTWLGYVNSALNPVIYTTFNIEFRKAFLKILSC
- protocol_summary: [N-Methyl-3H]Spiroperidol binding to cloned human dopamine D3 receptors
- measurement_setup: read-out: D3 Ki
pKi: −log10 of the molar value.
Threshold check on pKi: at or above 7 gives 1, strictly below gives -1.

- molecule: "CC[C@H]1CC[C@H](NC(=O)C2(CCN3CCC(c4noc5ccsc45)CC3)CC2)CC1 [832242A]"
  assayed_system: "cloned human dopamine D3 receptors (Homo sapiens, UniProt P35462)"
  group_label: -1
- molecule: "C[C@H]1CC[C@H](NC(=O)[C@@H]2C[C@H]2CN2CCC(c3n[nH]c4cc(Br)ccc34)CC2)CC1 [compound 833694]"
  assayed_system: "cloned human dopamine D3 receptors (Homo sapiens, UniProt P35462)"
  group_label: 1
- molecule: "O=C(NCCCN1CCCCC1)[C@@H]1C[C@H]1CN1CCC(c2noc3ccc(C(F)(F)F)cc23)CC1 [A002200838]"
  assayed_system: "cloned human dopamine D3 receptors (Homo sapiens, UniProt P35462)"
  group_label: 1

## Task Check if pKi >= 7 (inclusive). Item: O=C(C1CC1CN1CCC(c2noc3ccsc23)CC1)N1CCN(CCCc2ccccc2)CC1 (racemic) [compound 832197]
## Result 1

## Task Please check the record COc1ccc(CN2CCN(C(=O)C3CC3CN3CCC(c4noc5ccsc45)CC3)CC2)cc1 (racemic) [compound 832155] and state if its pKi is at or above 7.
## Result 1

###

- assayed_system: cloned human dopamine D3 receptors (Homo sapiens)
- Construct: expressed in transfected cells; membrane homogenate
- protocol_summary: [N-Methyl-3H]Spiroperidol binding to cloned human dopamine D3 receptors
- measurement_setup: read-out: D3 Ki
For each entry below, report its Ki value.
Answers are plain numbers, in nM.

Example cases with answers are listed next.
- compound: "C[C@H]1CC[C@H](NC(=O)[C@@H]2C[C@H]2CN2CCN(c3csc4ncccc34)CC2)CC1"
  assayed_system: "cloned human dopamine D3 receptors (Homo sapiens)"
  result_type: "Ki"
  endpoint_unit: "nM"
  recorded_measurement: 3.24
- compound: "O=C(NCC1CCNCC1)[C@@H]1C[C@H]1CN1CCN(c2csc3cc(C(F)(F)F)ccc23)CC1"
  assayed_system: "cloned human dopamine D3 receptors (Homo sapiens)"
  result_type: "Ki"
  endpoint_unit: "nM"
  recorded_measurement: 14.3
- compound: "O=C(NCCCCc1cccnc1)[C@@H]1C[C@H]1CN1CCC(c2noc3ccsc23)CC1"
  assayed_system: "cloned human dopamine D3 receptors (Homo sapiens)"
  result_type: "Ki"
  endpoint_unit: "nM"
  recorded_measurement: 16
- compound: "CC1CCC(NC(=O)C2CCC2CN2CCC(c3noc4ccsc34)CC2)CC1 (racemic)"
  assayed_system: "cloned human dopamine D3 receptors (Homo sapiens)"
  result_type: "Ki"
  endpoint_unit: "nM"
  recorded_measurement: 65.3

Take each entry in turn and give its Ki.
1. COc1c(F)ccc2c(C3CCN(CC4CC4C(=O)NC4CCC(C)CC4)CC3)noc12 (racemic)
2. O=C(NC1CCCCC1)[C@H](O)CCN1CCC(c2noc3ccsc23)CC1

## Result
[0.602, 547]

Please state Ki for every compound in the list that follows.
1. O=C(NC1CCN(Cc2cc(F)cc(F)c2)CC1)C1CC1CN1CCC(c2noc3ccsc23)CC1 (racemic)
2. Cc1cn(CCCNC(=O)[C@@H]2C[C@H]2CN2CCC(c3noc4ccsc34)CC2)cn1

## Result
1: 0.718; 2: 35

Give Ki for each of the items listed below.
1. Cn1nc(C2CCN(C[C@@H]3C[C@H]3C(=O)NCC3CCNCC3)CC2)c2ccc(C(F)(F)F)cc21 [A002436288A]
2. COc1ccccc1CCNC(=O)C1CC1CN1CCC(c2noc3ccsc23)CC1 (racemic)

## Result
106
10.2

Each of the following entries comes with a recorded value; kindly state Ki for each.
1. CN1CCN(CCCNC(=O)[C@@H]2C[C@H]2CN2CCC(c3nn(C)c4ccsc34)CC2)CC1
2. CC[C@H]1CC[C@H](NC(=O)[C@@H]2C[C@H]2CN2CCN(c3nn(-c4ccc(C(F)(F)F)cc4)c4ccccc34)CC2)CC1
3. COc1cccc2c(C3CCN(C[C@@H]4C[C@H]4C(=O)NC4CC5CCC(C4)N5C)CC3)nn(C)c12 (stereo partly drawn)
4. O=C(NCCS(=O)(=O)c1ccccc1)C1CC1CN1CCC(c2noc3ccsc23)CC1 (racemic)

## Result
1. 104
2. 26.7
3. 201
4. 291

For each listed entry, give its Ki.
1. Cc1ccc(S(=O)(=O)n2nc(N3CCN(C[C@@H]4C[C@H]4C(=O)NCCCn4ccnc4)CC3)c3sccc32)cc1
2. CCCCn1nc(N2CCN(C[C@@H]3C[C@H]3C(=O)NCCCn3ccnc3)CC2)c2sccc21
3. O=C(NCCCN1CCCC1)[C@@H]1C[C@H]1CN1CCN(c2csc3cc(C(F)(F)F)ccc23)CC1
4. O=C([C@@H]1C[C@H]1CN1CCN(c2csc3cc(C(F)(F)F)ccc23)CC1)N1CCC[C@H](Cn2ccnc2)C1
5. CC(=O)N1CCCCC1CCNC(=O)[C@@H]1C[C@H]1CN1CCN(c2csc3cc(C(F)(F)F)ccc23)CC1 (mixture of isomers)

## Result
28.3
205
6.5
8.84
28.8

Need Ki for each of these compounds.
1. CN1CCC(N(C)C(=O)[C@@H]2C[C@H]2CN2CCN(c3csc4cc(C(F)(F)F)ccc34)CC2)CC1
2. O=C([C@@H]1C[C@H]1CN1CCC(c2noc3ccsc23)CC1)N1CCN(Cc2ccc(Cl)cc2)CC1
3. CN1CCN(CCCNC(=O)[C@@H]2C[C@H]2CN2CCN(c3csc4cc(C(F)(F)F)ccc34)CC2)CC1
4. COc1ccc2c(c1)c(N1CCN(C[C@@H]3C[C@H]3C(=O)NC[C@@H]3CCNC3)CC1)nn2C
5. O=C(NC1CCN(c2ncccc2C(F)(F)F)C1)C1CC1CN1CCC(c2noc3ccsc23)CC1 (racemic)

## Result
[1.85, 26.7, 6.29, 4.06, 18.7]
